condition.info: in methanol, 283.15 K
measure.name: solubility (mole fraction)
// print number alone

Sample CCO.C[C@H]1c2cccc(O)c2C(O)=C2C(=O)[C@]3(O)C(O)=C(C(N)=O)C(=O)[C@@H](N(C)C)[C@@H]3[C@@H](O)[C@@H]21.C[C@H]1c2cccc(O)c2C(O)=C2C(=O)[C@]3(O)C(O)=C(C(N)=O)C(=O)[C@@H](N(C)C)[C@@H]3[C@@H](O)[C@@H]21.Cl.Cl.O — what was its solubility (mole fraction)? 0.015

----------
condition.info: in methanol, 298.15 K
measure.name: solubility (mole fraction)
// print number alone

Sample CCO.C[C@H]1c2cccc(O)c2C(O)=C2C(=O)[C@]3(O)C(O)=C(C(N)=O)C(=O)[C@@H](N(C)C)[C@@H]3[C@@H](O)[C@@H]21.C[C@H]1c2cccc(O)c2C(O)=C2C(=O)[C@]3(O)C(O)=C(C(N)=O)C(=O)[C@@H](N(C)C)[C@@H]3[C@@H](O)[C@@H]21.Cl.Cl.O — what was its solubility (mole fraction)? 0.0198

----------
condition.info: in ethanol, 293.15 K
measure.name: solubility (mole fraction)
// print number alone

Sample CCO.C[C@H]1c2cccc(O)c2C(O)=C2C(=O)[C@]3(O)C(O)=C(C(N)=O)C(=O)[C@@H](N(C)C)[C@@H]3[C@@H](O)[C@@H]21.C[C@H]1c2cccc(O)c2C(O)=C2C(=O)[C@]3(O)C(O)=C(C(N)=O)C(=O)[C@@H](N(C)C)[C@@H]3[C@@H](O)[C@@H]21.Cl.Cl.O — what was its solubility (mole fraction)? 0.00278

----------
condition.info: in ethanol, 307.25 K
measure.name: solubility (mole fraction)
// print number alone

Sample CCO.C[C@H]1c2cccc(O)c2C(O)=C2C(=O)[C@]3(O)C(O)=C(C(N)=O)C(=O)[C@@H](N(C)C)[C@@H]3[C@@H](O)[C@@H]21.C[C@H]1c2cccc(O)c2C(O)=C2C(=O)[C@]3(O)C(O)=C(C(N)=O)C(=O)[C@@H](N(C)C)[C@@H]3[C@@H](O)[C@@H]21.Cl.Cl.O — what was its solubility (mole fraction)? 0.00364

----------
condition.info: in methanol, 318.15 K
measure.name: solubility (mole fraction)
// print number alone

Sample CCO.C[C@H]1c2cccc(O)c2C(O)=C2C(=O)[C@]3(O)C(O)=C(C(N)=O)C(=O)[C@@H](N(C)C)[C@@H]3[C@@H](O)[C@@H]21.C[C@H]1c2cccc(O)c2C(O)=C2C(=O)[C@]3(O)C(O)=C(C(N)=O)C(=O)[C@@H](N(C)C)[C@@H]3[C@@H](O)[C@@H]21.Cl.Cl.O — what was its solubility (mole fraction)? 0.0402

----------
condition.info: in n-propanol, 322.55 K
measure.name: solubility (mole fraction)
// print number alone

Sample CCO.C[C@H]1c2cccc(O)c2C(O)=C2C(=O)[C@]3(O)C(O)=C(C(N)=O)C(=O)[C@@H](N(C)C)[C@@H]3[C@@H](O)[C@@H]21.C[C@H]1c2cccc(O)c2C(O)=C2C(=O)[C@]3(O)C(O)=C(C(N)=O)C(=O)[C@@H](N(C)C)[C@@H]3[C@@H](O)[C@@H]21.Cl.Cl.O — what was its solubility (mole fraction)? 0.00351

----------
condition.info: in n-propanol, 298.15 K
measure.name: solubility (mole fraction)
// print number alone

Sample CCO.C[C@H]1c2cccc(O)c2C(O)=C2C(=O)[C@]3(O)C(O)=C(C(N)=O)C(=O)[C@@H](N(C)C)[C@@H]3[C@@H](O)[C@@H]21.C[C@H]1c2cccc(O)c2C(O)=C2C(=O)[C@]3(O)C(O)=C(C(N)=O)C(=O)[C@@H](N(C)C)[C@@H]3[C@@H](O)[C@@H]21.Cl.Cl.O — what was its solubility (mole fraction)? 0.00151
